molecular target: WDR5 (Homo sapiens, UniProt P61964)
pKi: −log10 of the molar value.
endpoint label: pKi

INSERT INTO results (compound, value_observed) VALUES
  ('O=S(=O)(Nc1cn(CC2CC2)cn1)c1cc(Br)cc(Cl)c1O [Example 5]', 6.09),
  ('O=S(=O)(Nc1nc2ccccc2s1)c1cc(Br)cc(Cl)c1O [Example 37]', 6.92);
